src = PubChem BioAssay (NCI)

I'd be grateful if you could share measured growth inhibition for these entries.
Test: NCI Yeast Anticancer Drug Screen. Data for the bub3 strain (AID 167)
Details: S. cerevisiae bub3 mutant strain, at 5.0 µM (retest, dose inferred, filed as 0.5), active compounds read high
Procedure: Growth inhibition of yeast strains with defined genetic alterations is measured as a screen for potential anti-cancer activity. Selected strains with alterations in DNA damage repair or cell cycle control were exposed to compounds and growth inhibition was measured relative to vehicle treated controls. The strain used in this assay is bub3
The panel holds about 79,000 compounds, 15% with a hit somewhere; the sample as a whole holds those more often.
Give bare numbers, in %.

INSERT INTO results (compound, endpoint_result) VALUES
  ('COC(=O)c1ccccc1C(=O)c1cc(OC)c2c(c1OC)CCCC2', 3),
  ('O=C1c2ccccc2C2N1CCCN2C(=O)c1sc2ccccc2c1Cl (centres undefined)', 35),
  ('CS(=O)(=O)OCCN(CCOS(C)(=O)=O)c1ccc(C=Nc2ccc(-c3csc(-c4ccc(Br)cc4)n3)cc2)c(Cl)c1', 3);

Shifting focus to the compound that follows.
Lookup: What value of growth inhibition has been recorded for this entry: "CC(=O)/C(=C/n1c(=S)[nH]c2ccc([N+](=O)[O-])cc21)C(=O)Nc1ccc(Cl)cc1"
Found: -4
